Biological target: T1, T cell receptor (TCR) Vγ9 (TRGV9) (human, UniProt Q99603 21-122); also: test concentration or dose not given here
T1 sequence (looked up): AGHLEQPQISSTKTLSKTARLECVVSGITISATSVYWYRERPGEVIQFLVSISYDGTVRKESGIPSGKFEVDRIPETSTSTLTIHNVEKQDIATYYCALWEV
Assay: cell-based or functional assay
Readout Label: CD71+ (Vg9+ cells), flow staining (%)
Give bare numbers, in %.

**Q:** Look up CD71+ (Vg9+ cells), flow staining of VG9B54 (antibody, human IgG1, kappa, V domains shown) VH: EVQLVESGGGLVKPGGSLRLSCAASGFAFSSYSLTWVRQAPGKGLEWVSSISSSSSYIFYADSVKGRFTISRDNAKNSLYLQMNSLRAEDTAVYYCATDGELGPFDYWGQGTTVTVSS VL: EIVMTQSPGTLSLSPGERATLSCRASQSVSSSYLAWFQQKPGQAPRRLIYGASSRATGIPDRFSGSGSGTDFTLTISRLEPEDFAVYYCQQYGRSPLTFGGGTKVEIKR and report it.
**A:** 93.3

Reference source for all entries: patent US20220125947A1
